biological target: Cytochrome P450 2C9 (Homo sapiens); test: qHTS Assay for Inhibitors and Substrates of Cytochrome P450 2C9 (AID 883); details: recombinant CYP2C9, luciferin-H luminescence, 60 min; series mostly up to 11.4 µM; note: nearly all actives have a fitted effect of over 60% in size; note: potency is the fitted concentration of half-maximal effect
Results filed as inconclusive are left out. Calls of active or inactive are those of the source. Calls come from the whole dose curve; as a rule, active = well fitted inhibition curve with a large enough effect; inconclusive = small, poorly fitted or top-dose-only effect; inactive = no such curve, though single readings can be large or run the other way.
Readout Name: Potency

compound="CCCCCCC/C=C/C1=CC2(C)CC1(C)C(CCCCCCC)CC2=O (stereo unspecified)" experimental_result=inactive
compound="COC1(C#CC2C=CC(OC(C)=O)C(COC(C)=O)O2)CCCCC1 (stereo unspecified)" experimental_result=inactive
compound="CC(=O)OCC1OC(C#CCCc2ccccc2)C=CC1OC(C)=O (stereo unspecified)" experimental_result=inactive
compound="COC(=O)NC(c1ccccc1)C(C(=O)OC)C(=O)OC (stereo unspecified)" experimental_result=inactive
compound="CCOC(=O)[C@]1(C(NC(=O)OC)c2cccc(C)c2)CCCC1=O (stereo partly specified)" experimental_result=inactive
compound="C/C=C/OC(=O)NC(c1cccc(C)c1)[C@@]1(C(=O)OCC)CCCC1=O (stereo partly specified)" experimental_result=inactive
compound="COC(=O)NC(/C(C(=O)OC)=C(\\C)NCc1ccccc1)c1cccc(F)c1 (stereo unspecified)" experimental_result=inactive
compound=CO[C@H]1COC(=O)C/C=C\[C@H](C)[C@@H](OC)COC(=O)[C@@H](C)COC(=O)C/C=C\[C@@H]1C experimental_result="2.51 µM (active)"

Given item C=CCc1cccc(C2C(C)CCC3C(=O)N4C(Cc5c([nH]c6ccccc56)C4c4cc(OC)c(OC)c(OC)c4)C(=O)N32)c1 (stereo unspecified) , the value recorded as its Potency is inactive

Entry under test: COC(=O)C1=C(C)N(Cc2ccccc2)C2=C3C(=O)OCCC3[C@@](O)(C(=O)OC)C(=O)N2C1c1ccccc1 (stereo partly specified) . Its Potency was inactive

response.value for Cc1cc(C)cc(C#CC2C=CC(Oc3ccc(C4CCCC4)cc3)C(CO)O2)c1 (stereo unspecified) (field: Potency) = inactive

For reference, reported Potency for CC(=O)OCC1OC(C#Cc2ccccc2Cl)C=CC1OC(C)=O (stereo unspecified) stands at inactive

Sample C=CC[C@@H]1C=C[C@@H](O/N=C\c2ccc(C(=O)N3[C@H](c4ccc(C)cc4)[C@@H](C)CC[C@H]3C(=O)OC)cc2)[C@@H](CO)O1 ; Potency observed: 3.98 µM (active)

Per the records, this compound ( Cc1cc(F)ccc1OC1C=CC(c2ccc3c(c2)OCO3)OC1CO (stereo unspecified) ) has Potency equal to 3.16 µM (active)

Just so you know, measured Potency for CCC(=O)CC(NC(=O)OC)c1ccc(F)cc1 (stereo unspecified) came out at inactive

Record CC1(C)OC(C(O)(c2ccccc2)c2ccccc2)C(C(O)(c2ccccc2)c2ccccc2)O1 (stereo unspecified) . Reported Potency: inactive

# Potency (compound: COC(c1ccccc1)C(C)C(OC)C(C)C(OC)C(C)C(C)=O (stereo unspecified) ) is inactive

Please fill in: Potency reported for COC(=O)NC(/C(C(=O)OC)=C(\C)NCc1ccccc1)c1ccc(F)cc1 (stereo unspecified) = 2.51 µM (active)

// sample COc1ccc(OC2C=CC(c3ccccc3)OC2CO)c(C(C)(C)C)c1 (stereo unspecified) , its Potency was 3.16 µM (active)

Potency reported for this compound COc1ccc(/C=C/NC(=O)Cc2ccc(OC)c(OC)c2)cc1 : inactive

Field Potency (entry C/C(CCN1CCCCc2nc(C)c(C)cc21)=N\O[C@@H](C)c1cc(-c2c(C)cc(C)cc2C)no1 ) reads 2.51 µM (active)

For record COC(=O)NC(c1ccco1)[C@@]1(C(=O)OC)CCCC1=O (stereo partly specified) the listed Potency is inactive

response.value for CO[C@H]1COC(=O)C/C=C\[C@H](C)[C@@H](OC)COC(=O)[C@H](C)COC(=O)C/C=C\[C@@H]1C (field: Potency) = inactive

Entry under test: COC(=O)NC(/C(C(=O)OC)=C(\C)NCc1ccccc1)c1cccc(C)c1 (stereo unspecified) . Its Potency was inactive

For record CC(=O)OCC1OC(C#CCCCc2ccccc2)C=CC1OC(C)=O (stereo unspecified) the listed Potency is inactive

Briefly, Potency measured for CC(=O)c1ccc(C2C=CC(Oc3ccc(-c4ccccc4)cc3)C(CO)O2)cc1 (stereo unspecified) : 3.98 µM (active)
